All figures here come from patent US20030148958A1.

Measured CRF1R Emax of individual entries
experimentalTarget: corticotropin releasing factor 1 receptor; further: reference of the scale not given here
assayMethodText: cell-based or functional assay
Ends that are not written are not given here.
Please reply with the bare figure in % and do not write the unit itself.

Here is how some binders turned out for CRF1R Emax.
ZGPPISIDLPQYLLRKMIEIEKQEKEKQQAANNRLLLDTI (C-terminal amide) [SEQ ID NO 27]; 100
SQEPPISLDLTFHLLREVLEQARARAAREQATTNARILARV-NH2 [SEQ ID NO 157]; 91
ZGPPISIDLPTQLLRKMIEIEKQEKEKQQAANNRLLLDTI (C-terminal amide) [SEQ ID NO 72]; 4
DNPSLSIDLPLQLLRTLLELARTQSQRERAEQNAIIFASV-NH2 [SEQ ID NO 176]; 26.9
ZGPPISIDLPFYLLRKMIEIEKQEKEKQQATTNARILARV (C-terminal amide) [SEQ ID NO 147]; 96

Prompt line: Return reported CRF1R Emax; argument: ZGIVLSLDVPIGLLRKMIEIEKQEKEKQQAANNRLLLDTI (C-terminal amide) [SEQ ID NO 153]
Response line: 7
